- target entity: gelatinase A (Homo sapiens)
- Construct: endogenous in cells; host or cells: human normal skin dermal fibroblasts (HNDF); progelatinase A purified from them
- Sequence (P08253 110-660): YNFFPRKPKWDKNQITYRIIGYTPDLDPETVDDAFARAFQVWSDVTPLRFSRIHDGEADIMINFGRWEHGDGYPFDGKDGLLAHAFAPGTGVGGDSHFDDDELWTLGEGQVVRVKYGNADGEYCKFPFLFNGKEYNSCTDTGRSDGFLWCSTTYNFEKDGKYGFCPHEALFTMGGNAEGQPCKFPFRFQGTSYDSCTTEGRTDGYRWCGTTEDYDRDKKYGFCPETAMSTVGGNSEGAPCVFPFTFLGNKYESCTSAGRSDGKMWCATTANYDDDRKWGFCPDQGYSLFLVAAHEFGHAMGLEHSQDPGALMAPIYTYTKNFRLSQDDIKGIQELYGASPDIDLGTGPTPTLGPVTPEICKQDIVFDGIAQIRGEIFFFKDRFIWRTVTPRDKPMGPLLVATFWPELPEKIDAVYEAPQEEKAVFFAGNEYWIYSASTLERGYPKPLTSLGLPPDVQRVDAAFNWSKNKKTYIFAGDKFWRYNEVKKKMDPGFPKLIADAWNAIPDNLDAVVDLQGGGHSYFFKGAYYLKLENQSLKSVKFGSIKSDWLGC
- assay text: Inhibitory activity against gelatinase A (synthetic substrate MOCAc-Pro-Leu-Gly-Leu-A2 pr(Dnp)-Ala-Arg-NH2)
- Type: biochemical
- condition context: final 13.5 μM, incubated 20 minutes at 37° C., activated gelatinase A
property: IC50 (nM)
One number for each entry, in nM.

The reported value for Cc1ccc(C(=O)Nc2ccc(S(=O)(=O)N[C@H](Cc3c[nH]c4ccccc34)C(=O)NO)cc2)cc1 in terms of IC50 is 0.61

***
The reported value for C[C@@H](NS(=O)(=O)c1ccc(NC(=O)c2cccs2)cc1)C(=O)NO in terms of IC50 is 0.23
